measuredParameter: melting point

• Cc1c(C)n(Cc2ccco2)c2ncnc(NCCc3ccccc3Cl)c12 = 128.9 to 129.2 °C
• CC(=O)Nc1ccc(CCNc2ncnc3c2c(C)c(C)n3Cc2ccccc2)cc1 = 186.9 to 187.7 °C
• Oc1ccc(CCNc2ncnc3c2ccn3Cc2ccccc2)cc1 = 199.2 to 200.6 °C
• CC(=O)Nc1ccc(CCNc2ncnc3c2c(C)c(C)n3CCCN(C)C)cc1 = 132.7 to 133.7 °C
• Cc1c(C)n(Cc2ccco2)c2ncnc(NCCc3ccc(O)cc3)c12 = 165 to 167 °C
• Cc1c(C)n(Cc2ccccc2)c2ncnc(NCCc3cccc(Cl)c3)c12 = 205 to 207 °C
• COc1ccc(CCNc2ncnc3c2c(C)c(C)n3Cc2cccc(Cl)c2)cc1OC = 118 to 120 °C
• Cc1c(C)n(Cc2cccc(Cl)c2)c2ncnc(NCCc3ccc(O)cc3)c12 = 167.7 to 170 °C
• COc1cccc(CCNc2ncnc3c2c(C)c(C)n3Cc2ccccc2)c1 = 185 to 187.2 °C
